- protocolNotes: chemical genetic growth profiling, strain panel (AID 1159580);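 also: tested at 20 µM; growth read once vehicle control cultures reached saturation at 30 °C; lower values mean less growth of the strain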
- conditionSet: S. cerevisiae deletion strains, growth OD, locus YNL250W, strain rad50, hits give low values
Among all 5,500 compounds or so, about 2,000 (36%) were called active. Not shown: some 18% with an inconclusive outcome. Some of the results follow.
Rule: measured normalized growth below 1 gets TRUE; anything equal to or greater than 1 gets FALSE.

{"compound": "COC(=O)[C@]1(C)CC[C@]2(C)CC[C@]3(C)C4=CC=C5C(=CC(=O)C(O)=C5C)[C@]4(C)CC[C@@]3(C)[C@@H]2C1", "discreteLabel": "TRUE"}
{"compound": "CC1=CC(=O)C2=C(C)CC(O)C3C(C)C(=O)OC3C12 (stereo not drawn)", "discreteLabel": "FALSE"}
{"compound": "CNC(Cc1c[nH]c2ccccc12)C(=O)O (stereo not drawn)", "discreteLabel": "TRUE"}
{"compound": "CC(NCCC(c1ccccc1)c1ccccc1)c1ccccc1 (stereo not drawn)", "discreteLabel": "TRUE"}
{"compound": "CC1=C(O)C(=O)C=C2C1=CC=C1[C@@]2(C)CC[C@@]2(C)[C@@H]3C[C@](C)(C(=O)O)CC[C@]3(C)CC[C@]12C", "discreteLabel": "TRUE"}
{"compound": "CC(=O)O[C@H]1CC[C@]2(C)C3CC[C@@]4(C)C(CC5O[C@@]6(CCC(C)CO6)[C@@H](C)C54)C3CC[C@H]2C1 (stereo partly drawn)", "discreteLabel": "TRUE"}
{"compound": "COC1(C)CCC2OC2(C)CCC2C1CC2(C)C (stereo not drawn)", "discreteLabel": "FALSE"}
